Data origin, for the record: the nanobody polyreactivity screen of Harvey et al. (2022)

- TEST_DESCRIPTION: yeast display, Sf9 membrane polyspecificity reagent, FACS + sequencing; frameworks hold sequencing errors
ENDPOINT_LABEL: polyreactivity (PSR sort gate)

ITEM_SEQUENCE	polyreactivity (PSR sort gate)
QVQLVESGGGLVQAGGSLRLSCAASGSIFAVNTMGWYRQAPGKERELVAAISQRGSSTYYADSVKGRFTISRDNAKNTVYLQMNSLKPEDTAVYYCAKRFIYGRYNYWGQGTQVTVSS	high polyreactivity
QVQLVESGGGLVQAGGSLRLSCPASGIILTQNAMGWYRQAPGKERELVAAITESGARTYYADSVKGRFTISRDNAKNTVYLQMISLKPEDTAVYSCNAYRYYRGQVYPFYYWGHGTQVTVSS	low polyreactivity
QVQLVESGGGLLQAGGSLRLSCASSGSTFGGNAMGRYRQAPGKERELVAAITVGGDSTYYADSVKGRFTISRDNAKNTVYLQMNSLKPEDTAVYYCNASNVYFWFVTLEFDYWGQGTQVTVSS	low polyreactivity
QVQLVESGGGLVQAGGSLRLSCAASGIIFKVYAMGWYRQAPGKERELVAAISKSGGSTYYADSVKGRFTISRDNAKNTVYLQMNSLNPEDTAVYYCAARDYARYASYYYWGQGTQVTVSS	high polyreactivity
QVQLVESGGGLVQAGGSLRLSCAASGFTFSSYAMGWYRQAPGKERELVAAITRSGGNTYYADSVKGRFTISRDYAKNTVYLQMNSLKPEDTAVYDCAAPGKGISPSHYYWGQGTQVTVSS	high polyreactivity
QVQLVESGGGLVQAGGSLRLSCAASGRIFYVNTMGWYRQAPGKERELVATISSAASTNYADSVKGRFTISRDNAKNTVYLQMNSLKPEDTAVYYCNAAFYKEYFYWGQGTQVTVSS	low polyreactivity

Here is the next item to consider.
Complete the entry with polyreactivity (PSR sort gate) for QVQLVESGGGLVQAGGSLRLSCAASGFTFSIYAMGWYRHAPGKERELVAAINWSGGSTYYADSVKGRFTISRDNAKNTVYLQMNSLKPEDTAVSYCATEATYGGGPGYEYWGQGTQVTVSS
low polyreactivity
